These entries and their values trace back to patent US8507493B2.

Ki: recorded values
- measured.target: human 11β-HSD1 (Homo sapiens, UniProt P28845)
- Construct: truncated (24-287aa) human 11β-HSD1 enzyme
- Sequence (P28845 24-287): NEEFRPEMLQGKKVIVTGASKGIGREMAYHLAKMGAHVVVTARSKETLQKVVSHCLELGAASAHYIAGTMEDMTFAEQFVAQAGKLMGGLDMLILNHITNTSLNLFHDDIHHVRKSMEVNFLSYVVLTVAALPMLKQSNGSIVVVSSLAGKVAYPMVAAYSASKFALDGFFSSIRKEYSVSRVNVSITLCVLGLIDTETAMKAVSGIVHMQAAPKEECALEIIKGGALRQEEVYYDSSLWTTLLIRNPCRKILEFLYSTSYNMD
- test.description: Human 11β-HSD1 enzymatic SPA assay
- test.conditions: truncated (24-287aa) human 11β-HSD1, apparent Ki from IC50 by Cheng-Prusoff
readout.kind: Ki

>  <molecule>
CC(C)(Oc1ccc(Cl)cn1)C(=NC#N)NC1C2CC3CC1CC(C(N)=O)(C3)C2 (stereo not shown) [Example 75]

>  <result>
10 to 100 nM

$$$$
>  <molecule>
CC(C)(Oc1ccccc1)C(=NC#N)NC12CCC(C(N)=O)(CC1)C2 [Example 81]

>  <result>
> 1000 nM

$$$$
>  <molecule>
COc1ccc(Cl)cc1C(=NC#N)N[C@@H]1[C@@H]2C[C@@H]3C[C@H]1C[C@@](O)(C3)C2 [Example 93]

>  <result>
> 1000 nM

$$$$
>  <molecule>
CON=C(NC1C2CC3CC1CC(S(C)(=O)=O)(C3)C2)C(C)(C)Oc1ccc(Cl)cc1 (stereo not shown) [Example 13]

>  <result>
100 to 1000 nM

$$$$
>  <molecule>
CC(C)(Oc1ccc(F)cc1Cl)C(=S)N[C@@H]1[C@@H]2C[C@@H]3C[C@H]1C[C@@](S(C)(=O)=O)(C3)C2 [Example 12]

>  <result>
10 to 100 nM

$$$$
>  <molecule>
CC1(C)/C(=N/C#N)N([C@@H]2[C@@H]3C[C@@H]4C[C@H]2C[C@@](S(C)(=O)=O)(C4)C3)CC1COc1ccc(C#N)cn1 (stereo partly shown) [Example 33]

>  <result>
100 to 1000 nM

$$$$
>  <molecule>
COC(=O)C12CC3CC(C1)C(NC(=NC#N)C(C)(C)OCc1ccc(OC)cc1)C(C3)C2 (stereo not shown) [Example 28]

>  <result>
100 to 1000 nM

$$$$
>  <molecule>
COC(=O)C12CC3CC(C1)C(NC(=NC#N)C(C)(C)OCc1ccc(C(F)(F)F)cc1)C(C3)C2 (stereo not shown) [Example 17]

>  <result>
100 to 1000 nM

$$$$
>  <molecule>
CC(C)(Oc1ccccc1)C(=NC#N)NC12CCC(C(F)F)(CC1)C2 [Example 89]

>  <result>
10 to 100 nM

$$$$
>  <molecule>
CC(C)(Oc1ccc(F)cc1F)/C(=N\C#N)N[C@@H]1[C@@H]2C[C@@H]3C[C@H]1C[C@@](S(N)(=O)=O)(C3)C2 [Example 57]

>  <result>
10 to 100 nM

$$$$
>  <molecule>
CC(C)(OCc1ccc(C(F)(F)F)cc1)/C(=N\C#N)N[C@@H]1[C@@H]2C[C@@H]3C[C@H]1C[C@@](C(N)=O)(C3)C2 [Example 25]

>  <result>
10 to 100 nM

$$$$
>  <molecule>
CC(C)(Oc1ccc(Cl)cc1)C(=S)NC1C2CC3CC1CC(S(C)(=O)=O)(C3)C2 (stereo not shown) [Example 9]

>  <result>
10 to 100 nM

$$$$
>  <molecule>
CC(C)(Oc1ccc(Cl)cn1)C(=NC#N)NC1C2CC3CC1CC(C#N)(C3)C2 (stereo not shown) [Example 59]

>  <result>
100 to 1000 nM

$$$$
>  <molecule>
CC(C)(Oc1ccccc1F)C(=NC#N)NC1C2CC3CC1CC(O)(C3)C2 (stereo not shown) [Example 80]

>  <result>
≤ 10 nM

$$$$
>  <molecule>
CC(C)(Oc1ccc(Cl)cn1)C(=NC#N)NC1C2CC3CC1CC(S(C)(=O)=O)(C3)C2 (stereo not shown) [Example 67]

>  <result>
100 to 1000 nM

$$$$
>  <molecule>
CC(C)(Oc1ccc(Cl)cc1)C(=NC#N)NC12CCC(C(=O)O)(CC1)CC2 [Example 46]

>  <result>
> 1000 nM

$$$$

* * *

- measured.target: human 11β-HSD1 (Homo sapiens, UniProt P28845)
- Construct: truncated (24-287aa) human 11β-HSD1 enzyme
- test.description: Human 11β-HSD1 enzymatic SPA assay
- test.conditions: truncated (24-287aa) human 11β-HSD1, apparent Ki from IC50 by Cheng-Prusoff
pKi: −log10 of the molar value.

>  <molecule>
N#CN=C(NC1C2CC3CC1CC(O)(C3)C2)C1(Oc2cccc(Cl)c2)CCC1 (stereo not shown)

>  <pKi>
6.00 to 7.00

$$$$
>  <molecule>
CC(C)(Oc1ccc(Cl)cc1F)C(=NC#N)NC1C2CC3CC(C2)CC1C3 (stereo not shown)

>  <pKi>
7.00 to 8.00

$$$$
>  <molecule>
CC(C)(Oc1ccccc1)/C(=N\C#N)N[C@@H]1[C@@H]2C[C@@H]3C[C@H]1C[C@@](C(N)=O)(C3)C2

>  <pKi>
≥ 8.00

$$$$
>  <molecule>
CC(C)(Oc1ccc(Cl)cc1F)C(=NC#N)NC1CCCCCCC1

>  <pKi>
6.00 to 7.00

$$$$
>  <molecule>
CC(C)(Oc1ccc(F)cc1F)C(=NC#N)NC1CCCCCCC1

>  <pKi>
6.00 to 7.00

$$$$
>  <molecule>
CC(C)(Oc1ccccn1)/C(=N\C#N)NC1C2CC3CC1CC(S(C)(=O)=O)(C3)C2 (stereo not shown)

>  <pKi>
6.00 to 7.00

$$$$
>  <molecule>
N#CN=C(Cc1ccc(F)cc1F)NC1C2CC3CC1CC(O)(C3)C2 (stereo not shown)

>  <pKi>
< 6.00

$$$$
>  <molecule>
CC(C)(Oc1ccc(Cl)cc1)C(=NC#N)NC12CCC(C(N)=O)(CC1)C2

>  <pKi>
6.00 to 7.00

$$$$
>  <molecule>
CC(C)(Oc1ccc(Cl)cc1F)C(=NC#N)NC12CC3CC(CC(C3)C1)C2

>  <pKi>
7.00 to 8.00

$$$$
>  <molecule>
CC(C)(Oc1ccc(F)cc1F)C(=NC#N)NC1C2CC3CC1CC(C(N)=O)(C3)C2 (stereo not shown)

>  <pKi>
≥ 8.00

$$$$
>  <molecule>
CC(C)(Oc1ccc(F)cc1Cl)C(=NC#N)NC1C2CC3CC1CC(O)(C3)C2 (stereo not shown)

>  <pKi>
7.00 to 8.00

$$$$
>  <molecule>
CC(C)(Oc1ccc(Cl)cc1)C(=NC#N)NC12CCC(C(N)=O)(CC1)CC2

>  <pKi>
7.00 to 8.00

$$$$
>  <molecule>
CC(C)(Cc1ccc(Cl)cc1)C(=NC#N)NC1C2CC3CC1CC(O)(C3)C2 (stereo not shown)

>  <pKi>
6.00 to 7.00

$$$$
>  <molecule>
CC(C)(Oc1ccc(F)cc1F)C(=NC#N)NC1CC2CCC1C2 (stereo not shown)

>  <pKi>
≥ 8.00

$$$$
>  <molecule>
[H]/N=C(/NC1C2CC3CC1CC(C(N)=O)(C3)C2)C(C)(C)Oc1ccccc1 (stereo not shown)

>  <pKi>
< 6.00

$$$$
>  <molecule>
CC(C)(Oc1ccc(Cl)cc1)C(=NC#N)NC1C2CC3CC1CC(O)(C3)C2 (stereo not shown)

>  <pKi>
≥ 8.00

$$$$
>  <molecule>
CC(C)(/C(=N\C#N)N[C@@H]1[C@@H]2C[C@@H]3C[C@H]1C[C@@](C(=O)O)(C3)C2)N1CCN(c2ccc(C(F)(F)F)cn2)CC1

>  <pKi>
< 6.00

$$$$
>  <molecule>
CC(C)(Oc1ccc(Cl)cc1)C(=NC#N)NC1CCCCCCC1

>  <pKi>
7.00 to 8.00

$$$$
>  <molecule>
CC(C)(Oc1ccc(Cl)cc1)C(=NC#N)NC12CCC(C(F)F)(CC1)CC2

>  <pKi>
6.00 to 7.00

$$$$

* * *

Ki: recorded values
- measured.target: human 11β-HSD1 (Homo sapiens, UniProt P28845)
- Construct: truncated (24-287aa) human 11β-HSD1 enzyme
- test.description: Human 11β-HSD1 enzymatic SPA assay
- test.conditions: truncated (24-287aa) human 11β-HSD1, apparent Ki from IC50 by Cheng-Prusoff
readout.kind: Ki

>  <compound>
CC(C)(Oc1ccc(Cl)cc1F)C(=NC#N)NC12CC3CC(CC1C3)C2

>  <readout.kind>
Ki

>  <result>
0.1 to 1 µM

$$$$
>  <compound>
CC(C)(Oc1ccc(Cl)cc1)/C(=N\C#N)N[C@@H]1[C@@H]2C[C@@H]3C[C@H]1C[C@@](C(=O)O)(C3)C2

>  <readout.kind>
Ki

>  <result>
0.1 to 1 µM

$$$$
>  <compound>
COC(=O)C12CC3CC(C1)C(NC(=NC#N)C(C)(C)Oc1ccc(Cl)cc1)C(C3)C2 (stereo not shown)

>  <readout.kind>
Ki

>  <result>
0.1 to 1 µM

$$$$
>  <compound>
CC(C)(Oc1ccc(Cl)cn1)C(=NC#N)NC1C2CC3CC1CC(S(N)(=O)=O)(C3)C2 (stereo not shown)

>  <readout.kind>
Ki

>  <result>
> 1 µM

$$$$
>  <compound>
CC(C)(Oc1ccc(Cl)cn1)/C(=N\C#N)N[C@@H]1[C@@H]2C[C@@H]3C[C@H]1C[C@@](O)(C3)C2

>  <readout.kind>
Ki

>  <result>
0.1 to 1 µM

$$$$
>  <compound>
CC(C)(Oc1ccc(Cl)cc1)/C(=N\C#N)N[C@@H]1[C@@H]2C[C@@H]3C[C@H]1C[C@@](C#N)(C3)C2

>  <readout.kind>
Ki

>  <result>
0.01 to 0.1 µM

$$$$
>  <compound>
N#CN=C(Cc1cccnc1Cl)NC1C2CC3CC1CC(O)(C3)C2 (stereo not shown)

>  <readout.kind>
Ki

>  <result>
> 1 µM

$$$$
>  <compound>
CC(C)(C(=NC#N)NC1C2CC3CC1CC(C(N)=O)(C3)C2)N1CCN(c2ccc(C(F)(F)F)cn2)CC1 (stereo not shown)

>  <readout.kind>
Ki

>  <result>
0.1 to 1 µM

$$$$
>  <compound>
CC(C)(Oc1ccccc1)C(=NC#N)NC12CCC(C(=O)O)(CC1)CC2

>  <readout.kind>
Ki

>  <result>
> 1 µM

$$$$
>  <compound>
CC(C)(Cc1ccc(Cl)cc1)C(=N)NC1C2CC3CC1CC(O)(C3)C2 (stereo not shown)

>  <readout.kind>
Ki

>  <result>
> 1 µM

$$$$
>  <compound>
COC(=O)C12CC3CC(C1)C(NC(=NC#N)C(C)(C)N1CC4CC(c5ccc(Cl)cc5)C4C1)C(C3)C2 (stereo not shown)

>  <readout.kind>
Ki

>  <result>
0.1 to 1 µM

$$$$
>  <compound>
CC(C)(Oc1ccc(Cl)cc1)C(=NC#N)NC1CC2CCC1C2 (stereo not shown)

>  <readout.kind>
Ki

>  <result>
0.1 to 1 µM

$$$$
>  <compound>
CC(C)(Oc1ccc(Cl)cc1)C(=NC#N)NC1C2CC3CC1CC(S(N)(=O)=O)(C3)C2 (stereo not shown)

>  <readout.kind>
Ki

>  <result>
0.1 to 1 µM

$$$$
>  <compound>
CC(C)(Oc1ccccc1F)/C(=N\C#N)NC1C2CC3CC1CC(C#N)(C3)C2 (stereo not shown)

>  <readout.kind>
Ki

>  <result>
0.01 to 0.1 µM

$$$$
>  <compound>
CC(C)(Oc1ccc(F)cc1F)C(=NC#N)NC1C2CC3CC1CC(O)(C3)C2 (stereo not shown)

>  <readout.kind>
Ki

>  <result>
≤ 0.01 µM

$$$$
>  <compound>
COC(=O)C12CC3CC(C1)C(NC(=NC#N)C(C)(C)N1CCN(c4ccc(C(F)(F)F)cn4)CC1)C(C3)C2 (stereo not shown)

>  <readout.kind>
Ki

>  <result>
0.1 to 1 µM

$$$$
